# tested_on: UniProtKB Q7L7X3
# Sequence (Q7L7X3 whole entry, looked up): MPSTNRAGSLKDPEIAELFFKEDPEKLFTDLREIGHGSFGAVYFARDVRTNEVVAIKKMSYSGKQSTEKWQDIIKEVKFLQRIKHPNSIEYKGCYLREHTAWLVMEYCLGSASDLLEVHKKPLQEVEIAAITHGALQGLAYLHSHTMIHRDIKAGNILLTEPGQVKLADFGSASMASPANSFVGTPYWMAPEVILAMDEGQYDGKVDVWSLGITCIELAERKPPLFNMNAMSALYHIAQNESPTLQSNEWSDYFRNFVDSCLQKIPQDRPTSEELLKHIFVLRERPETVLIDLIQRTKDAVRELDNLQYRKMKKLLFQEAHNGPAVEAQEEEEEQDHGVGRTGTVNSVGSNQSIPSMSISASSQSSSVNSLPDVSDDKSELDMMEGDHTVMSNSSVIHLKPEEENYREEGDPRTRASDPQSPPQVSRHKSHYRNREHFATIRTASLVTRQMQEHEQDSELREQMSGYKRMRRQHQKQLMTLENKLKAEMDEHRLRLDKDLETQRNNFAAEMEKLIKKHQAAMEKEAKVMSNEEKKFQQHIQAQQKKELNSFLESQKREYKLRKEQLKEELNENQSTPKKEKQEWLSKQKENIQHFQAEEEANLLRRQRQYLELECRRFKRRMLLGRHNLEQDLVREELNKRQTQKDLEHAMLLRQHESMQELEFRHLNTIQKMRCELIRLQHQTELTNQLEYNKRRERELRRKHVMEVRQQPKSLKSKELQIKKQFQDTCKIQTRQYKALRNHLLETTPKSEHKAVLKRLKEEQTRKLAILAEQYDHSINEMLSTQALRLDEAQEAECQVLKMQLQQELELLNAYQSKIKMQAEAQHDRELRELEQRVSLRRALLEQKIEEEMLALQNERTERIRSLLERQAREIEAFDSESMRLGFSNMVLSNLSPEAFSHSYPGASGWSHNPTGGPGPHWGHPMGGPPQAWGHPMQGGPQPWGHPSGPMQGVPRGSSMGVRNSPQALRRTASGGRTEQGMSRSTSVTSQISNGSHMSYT
# test_name: radiometric filter-binding kinase assay, Kinase HotSpot
# study_conditions: compound 0.5 µM; ATP 10 µM
readout_name: residual activity (%)

smiles_entry=O=C1NC(=O)C(c2c[nH]c3ccccc23)=C1c1c[nH]c2ccccc12 readout_name="residual activity" experimental_value=93.7
smiles_entry=O=C1Nc2ccccc2/C1=C1\Nc2ccccc2\C1=N/O readout_name="residual activity" experimental_value=102
smiles_entry=CCN(CC)CCCCN1c2ccccc2Oc2ccc(Cl)cc21 readout_name="residual activity" experimental_value=97.9
smiles_entry=CCn1cnc2c(Nc3cccc(Cl)c3)nc(N[C@@H]3CCCC[C@@H]3N)nc21 readout_name="residual activity" experimental_value=90.2
smiles_entry=COc1cc2ncnc(N3CCN(C(=O)Nc4ccc(Oc5ccccc5)cc4)CC3)c2cc1OC readout_name="residual activity" experimental_value=81.6
